Target: T1, C-terminal domain of subunit 1 of the general transcription regulator TFIIF (RAP74-CTD) (UniProt P35269 450-517)
T1 chain: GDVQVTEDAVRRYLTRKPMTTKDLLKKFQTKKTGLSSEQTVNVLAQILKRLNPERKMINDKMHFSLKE
Test: NMR
pKd: −log10 of the molar value. Positions of bridges follow the written chain, without caps; N, C: chain ends. Non-standard residues stand in square brackets, D forms with d. No end group written: not given here. pentenylalanine = pentenylalanine, unnatural amino acid di-substituted at Cα, crosslinked by ring-closing metathesis
Item-by-item account of pKd
PARAMETER_MEASURED: pKd

> print(dat)
                                     binder  parameter.measured  result
1  KKPGASAAAAQE[pentenylalanine]QLA[pentenylalanine]LAQELQAAQAAKKY (staple 13-17) [peptide δ_(Stpl)]                 pKd  < 3.00
2  KKPGASLAALQALQALQAAQAAKKY [peptide (P3-7)2]                 pKd  < 3.00
3  KKPGASLAALQALQALQALQALQAAQAAKKY [peptide (P3-7)3]                 pKd  < 3.00
